property: pIC50
Note: pIC50 values are expressed as the negative base-10 logarithm of concentration in M.

Query block: Lab request: please report pIC50 under test system Cathepsin B (Homo sapiens) for CC(C)C[C@H](NC(=O)[C@H]1O[C@@H]1C(=O)O)C(=O)NCCCCN=C(N)N
Result block: 8.34

* * *

Target: Sortase A (Staphylococcus aureus, UniProt Q9S446)
Test: Irreversible inhibition of recombinant Staphylococcus aureus sortase A deltaN24 expressed in Escherichia coli BL21(DE3) cells using Abz-LPATG-Dnp as substrate preincubated for 40 mins followed by substrate addition and measured every 1 min for 15 mins by FRET-based assay
property: IC50 (nM)
Value expressed in nM; do not type the unit.

Query block: Lab request: please report IC50 under test system Sortase A (Staphylococcus aureus, UniProt Q9S446) for COc1ccc(/C=C/C=C2C(=O)NC(=O)NC2=O)cc1
Result block: 400

* * *

Target: Sortase A (Staphylococcus aureus)
Test: Irreversible inhibition of recombinant Staphylococcus aureus sortase A deltaN24 expressed in Escherichia coli BL21(DE3) cells using Abz-LPATG-Dnp as substrate preincubated for 10 mins followed by substrate addition and measured every 1 min for 15 mins by FRET-based assay
property: IC50 (µM)
Value expressed in µM; do not type the unit.

Query block: Lab request: please report IC50 under test system Sortase A (Staphylococcus aureus) for COc1ccc(/C=C/C=C2C(=O)NC(=O)NC2=O)cc1
Result block: 1.1

* * *

Target: Sortase A (Staphylococcus aureus, UniProt Q9S446)
Experiment: Inhibition of recombinant Staphylococcus aureus sortase A deltaN24 transpeptidation expressed in Escherichia coli BL21 (DE3) cells using IsdA64 to 323 as substrate preincubated for 20 mins followed by substrate addition and measured after 1.5 hrs by SDS-PAGE-based assay
property: IC50
Number first, unit second.

Query block: Please give the measured IC50 for this compound: COc1ccc(/C=C/C=C2C(=O)NC(=O)NC2=O)cc1
Result block: 2650 nM

* * *

Molecular target: UniProt:Q9S446
Assay: Irreversible inhibition of recombinant Staphylococcus aureus sortase A deltaN24 expressed in Escherichia coli BL21(DE3) cells using Abz-LPATG-Dnp as substrate preincubated for 60 mins followed by substrate addition and measured every 1 min for 15 mins by FRET-based assay
property: IC50 (nM)
Value expressed in nM; do not type the unit.

Query block: Please give the measured IC50 for this molecule: COc1ccc(/C=C/C=C2C(=O)NC(=O)NC2=O)cc1
Result block: 300

* * *

Test: Irreversible inhibition of recombinant Streptococcus pyogenes sortase A deltaN81 expressed in Escherichia coli BL21(DE3) cells using Abz-LPATG-Dnp as substrate assessed as inactivation constant preincubated for 60 mins followed by substrate addition and measured every 1 min for 15 mins by fluorescence intensity based assay
property: Ki (nM)
Value expressed in nM; do not type the unit.

Query block: Please give the measured Ki for this compound: COc1ccc(/C=C/C=C2C(=O)NC(=O)NC2=O)cc1
Result block: 686

Sourced from ChEMBL document CHEMBL5107962
